Target: mouse TRPA1 (Mus musculus)
Sequence (Q8BLA8 whole entry): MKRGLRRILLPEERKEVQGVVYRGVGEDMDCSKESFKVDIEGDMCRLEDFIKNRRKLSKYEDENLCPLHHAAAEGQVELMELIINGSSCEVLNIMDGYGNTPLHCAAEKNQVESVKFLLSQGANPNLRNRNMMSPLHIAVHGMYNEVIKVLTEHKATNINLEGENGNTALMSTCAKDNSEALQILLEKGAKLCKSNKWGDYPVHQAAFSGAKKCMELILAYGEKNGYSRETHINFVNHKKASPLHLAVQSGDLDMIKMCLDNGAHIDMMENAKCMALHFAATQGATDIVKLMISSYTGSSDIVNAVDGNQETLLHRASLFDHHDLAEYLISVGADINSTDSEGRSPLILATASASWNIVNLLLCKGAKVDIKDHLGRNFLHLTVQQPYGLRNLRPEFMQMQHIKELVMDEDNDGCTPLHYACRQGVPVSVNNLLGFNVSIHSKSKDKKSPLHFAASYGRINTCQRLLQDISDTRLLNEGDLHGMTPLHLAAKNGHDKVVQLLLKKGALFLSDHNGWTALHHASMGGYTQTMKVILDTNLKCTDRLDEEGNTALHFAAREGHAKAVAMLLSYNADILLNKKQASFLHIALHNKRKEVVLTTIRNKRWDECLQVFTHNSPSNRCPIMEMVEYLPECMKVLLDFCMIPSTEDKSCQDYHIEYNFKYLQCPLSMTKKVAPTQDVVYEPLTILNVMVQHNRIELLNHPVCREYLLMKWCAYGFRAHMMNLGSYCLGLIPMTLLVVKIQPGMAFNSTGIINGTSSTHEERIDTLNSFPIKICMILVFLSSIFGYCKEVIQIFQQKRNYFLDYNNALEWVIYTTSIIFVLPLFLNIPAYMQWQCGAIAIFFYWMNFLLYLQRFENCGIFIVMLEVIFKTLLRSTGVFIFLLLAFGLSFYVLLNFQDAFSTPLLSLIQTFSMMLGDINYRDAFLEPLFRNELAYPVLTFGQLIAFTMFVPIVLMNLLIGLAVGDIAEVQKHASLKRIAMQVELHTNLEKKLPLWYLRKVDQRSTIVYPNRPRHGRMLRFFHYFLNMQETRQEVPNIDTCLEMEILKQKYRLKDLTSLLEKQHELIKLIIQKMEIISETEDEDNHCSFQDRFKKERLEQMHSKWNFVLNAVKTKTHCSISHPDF
Test: [Ca2+]i increase in TRPA1-expressing CHO cells
Assay type: cell-based
Observed property: pEC50
Lab note — pEC50 values are minus log10 of concentrations in M.

Find the recorded pEC50 belonging to CCCCCC(=O)C=CC=O and report it. 5.72

###

Target: UniProtKB Q8BLA8
Experiment: [Ca2+]i increase in TRPA1-expressing CHO cells
Type: cell-based
Details: read-out: EC50, increase in [Ca2+]i in Fe2+-loaded cells; TRPA1 CHO cells preloaded with 100 μM FeSO4 for 1 h; after 90 s
Observed property: pEC50
Lab note — pEC50 values are minus log10 of concentrations in M.

Find the recorded pEC50 belonging to OO [H2O2, hydrogen peroxide] and report it. 4.28

###

Some molecules, each annotated with its measured Response amplitude (% of K+).
Test system: DRG neurons from trpa1+/+ mice
Assay: Calcium imaging of DRG neurons from trpa1+/+ mice
Format: cell-based
Details: trpa1+/+ mouse DRG neurons; percentage of response to 50 mM KCl
The answer is to be given in %; state only the numeric part.

Completed entries (count: 4):
Molecule	Observed property	Endpoint result
CCCCCC(=O)C=CC=O	Response amplitude (% of K+)	89
C=CCN=C=S [AITC, allyl isothiocyanate]	Response amplitude (% of K+)	86
CCCCCC(O)/C=C/C=O (centres unmarked) [4-HNE, 4-hydroxynonenal]	Response amplitude (% of K+)	61
CCCCCC=CC=C1C(=O)C=C[C@@H]1CC=CCCCC(=O)O [15d-PGJ2, 15-deoxy-Δ^12,14-prostaglandin J2]	Response amplitude (% of K+)	63

I'm curious: which Response amplitude (% of K+) was measured for OO [H2O2, hydrogen peroxide] tested on DRG neurons from trpa1+/+ mice? 70
